GI50 listing for selected compounds.
Tested on: M14
Assay: NCI tumour cell line growth inhibition, 48 h
The source made the active and inactive calls. Rule as the data show it: active = GI50 up to about 1.1 µM and inactive = higher.
VALUE_KIND: GI50

compound=N=C(N)NS(=O)(=O)c1ccc(Nc2c3ccccc3nc3c(C(=O)N4CCN(CCO)CC4)ccc(Cl)c23)cc1 measured_target=M14 value_kind=GI50 result="> 100 µM (inactive)"
compound=NC(C(F)(F)F)(C(F)(F)F)P(=O)(c1ccccc1)c1ccccc1 measured_target=M14 value_kind=GI50 result="> 100 µM (inactive)"
compound=CC(=O)Nc1ccc(/C=c2\sc3nnc(CCC(=O)Nc4ccccc4Cl)n3c2=O)cc1 measured_target=M14 value_kind=GI50 result="16.7 µM (inactive)"
compound=Cc1cccc(C)c1NC(=S)N/C=C(\C#N)C(N)=O measured_target=M14 value_kind=GI50 result="> 100 µM (inactive)"
compound=S=C1CSc2c(cnc3ccccc23)N1 measured_target=M14 value_kind=GI50 result="> 100 µM (inactive)"
compound=O=C(O)Cc1cccc2c(=O)c3cccc([N+](=O)[O-])c3oc12 measured_target=M14 value_kind=GI50 result="> 100 µM (inactive)"
compound=O=S(O)CCCCSSCc1ccccc1CSSCCCCS(=O)O measured_target=M14 value_kind=GI50 result="10.3 µM (inactive)"
compound=COc1cc(CNC(=O)[C@H](Cc2ccc(O)cn2)NC(C)=O)cc(OC)c1 measured_target=M14 value_kind=GI50 result="92.5 µM (inactive)"
compound=Fc1c(F)c(C(F)(F)F)c(F)c(F)c1N/N=C\c1c[nH]c2ccccc12 measured_target=M14 value_kind=GI50 result="1.62 µM (inactive)"
compound="COC(=O)C(=O)C(C(=O)C(=O)Nc1ccc([N+](=O)[O-])cc1C#N)c1nc2ccc([N+](=O)[O-])cc2nc1O (stereo unspecified)" measured_target=M14 value_kind=GI50 result="> 100 µM (inactive)"
compound=N#Cc1ccc(/C=N/NC(=O)CSCC(=O)N/N=C/c2ccc(C#N)cc2)cc1 measured_target=M14 value_kind=GI50 result="> 100 µM (inactive)"
compound=Cc1ccc(/C=N/Nc2nncc3ccccc23)s1 measured_target=M14 value_kind=GI50 result="> 67.5 µM (inactive)"
compound=Cc1n[n+](Cc2ccccc2)c2sc(N)nn12 measured_target=M14 value_kind=GI50 result="> 100 µM (inactive)"
compound=O=P(O)(O)CCP(=O)(O)O measured_target=M14 value_kind=GI50 result="> 100 µM (inactive)"
compound=O=C1/C(=C/Cc2ccco2)N=C(c2ccccc2)N1c1nc2ccc(Sc3ccccc3)cc2[nH]1 measured_target=M14 value_kind=GI50 result="19.7 µM (inactive)"
compound=COc1ccc(-n2nnc3c(C#N)c(-c4ccccc4)c(C)n3c2=O)cc1 measured_target=M14 value_kind=GI50 result="81.8 µM (inactive)"
compound=O=C1NC(=S)NC(=O)C1C(c1ccc(Cl)cc1)C1C(=O)NC(=S)NC1=O.c1ccncc1 measured_target=M14 value_kind=GI50 result="> 100 µM (inactive)"
compound=CCN(CC)CCNc1ccc2nnn3c4ccc([N+](=O)[O-])cc4c(=O)c1c23 measured_target=M14 value_kind=GI50 result="11.8 µM (inactive)"
compound="S=C1OC2CCCC[C@H]2O1 (stereo partly specified)" measured_target=M14 value_kind=GI50 result="> 100 µM (inactive)"
compound=COc1cc(C)cc2c(-c3c(O)cc(O)c4c3C[C@H](C)N[C@H]4C)cc(-c3cc(-c4c(O)cc(O)c5c4C[C@H](C)N[C@H]5C)c4cc(C)cc(OC)c4c3O)c(O)c12 measured_target=M14 value_kind=GI50 result="> 100 µM (inactive)"
compound="CC(C)(Br)C(Br)CCC(C)(Br)C(Br)CO (stereo unspecified)" measured_target=M14 value_kind=GI50 result="> 10 µM (inactive)"

* * *

Tested on: HOP-62
Assay: NCI tumour cell line growth inhibition, 48 h
Activity calls are given as the source filed them. Rule as the data show it: active = GI50 up to about 1.1 µM and inactive = higher.
Possible outcomes: class 1 (active), class 0 (inactive)

compound="NC(=O)/C(=N\\NC(=O)C[n+]1ccccc1)C1NC(=O)NC1=O (stereo unspecified)" measured_target=HOP-62 answer_label="class 0"
compound=CCCN(CCC)C(=O)Cc1c2n(c3ccccc13)CCCc1ccccc1-2 measured_target=HOP-62 answer_label="class 0"
compound=C/C(CC(=O)NCCc1ccccc1)=N\NC(=O)C[n+]1ccccc1 measured_target=HOP-62 answer_label="class 0"
compound=CSc1ccc2c(cc1=O)[C@@H](NC(=O)c1ccc(N)cc1)CCc1cc(O)c(O)c(O)c1-2 measured_target=HOP-62 answer_label="class 0"
compound=Cc1ccc2c(c1)-c1nc(N)c(C#N)c(-c3ccccc3)c1CCS2(=O)=O measured_target=HOP-62 answer_label="class 0"
compound=C/C(C=O)=C/[C@@]1(C)O[C@@H](C)[C@@](C)(O)[C@@H]1O measured_target=HOP-62 answer_label="class 0"
compound="O=C(CC1(O)C(=O)Nc2c(Cl)cc(Cl)cc21)c1cccc2ccccc12 (stereo unspecified)" measured_target=HOP-62 answer_label="class 0"
compound=NC(=O)NN=C(CS)CS measured_target=HOP-62 answer_label="class 1"
compound=CCN1/C(=C/c2ccc3ccccc3[n+]2CC)C=Cc2ccccc21 measured_target=HOP-62 answer_label="class 1"
compound=CCOC(=O)CSc1nc(N)c2c(-c3ccccc3)c3c(nc2n1)CCCC3 measured_target=HOP-62 answer_label="class 0"
compound=COc1ccc2c(c1)C(=O)c1ccc(OC)cc1C2=S measured_target=HOP-62 answer_label="class 0"

* * *

Tested on: PC-3
Test: NCI tumour cell line growth inhibition, 48 h
Calls of active or inactive are those of the source. No stated cut-off is given here; in the data, active = GI50 up to about 1.1 µM and inactive = higher.
VALUE_KIND: GI50

compound=COc1cc2ccc(=O)oc2cc1O value_kind=GI50 result="> 100 µM (inactive)"
compound="C=CCOc1ccc(C2C(C(=O)OCC)C(=O)CC(C)(O)C2C(=O)OCC)cc1OC (stereo not given)" value_kind=GI50 result="> 100 µM (inactive)"
compound=C=C(C(=O)O)[C@@H]1C[C@@H](OC(C)=O)[C@]2(C)CC/C=C(\C)CCC[C@H](C)[C@H](O)[C@@H]1O2 value_kind=GI50 result="39.7 µM (inactive)"
compound=CCCCCCCCCCCC/C=C\CC[C@@H](O)[C@H](O)CC[C@H](O)[C@@H]1CC[C@@H](CCCCCCCC2=C[C@H](C)OC2=O)O1 value_kind=GI50 result="2.75 µM (inactive)"
compound=CC(=O)C(CN1C(=O)c2ccccc2C1=O)C(C)=O value_kind=GI50 result="> 100 µM (inactive)"
compound=COc1cc2c(cc1OC)C1(c3ccccc3)CN(C2)Cc2cc(OC)c(OC)cc21 value_kind=GI50 result="31.3 µM (inactive)"
compound=CCCN(CCC)C(=S)Sc1nc(C)nc(N2CCN(c3nc(C)nc(SC(=S)N(CCC)CCC)c3[N+](=O)[O-])CC2)c1[N+](=O)[O-] value_kind=GI50 result="15.2 µM (inactive)"
compound=c1nnc(NCNc2nncs2)s1 value_kind=GI50 result="57.1 µM (inactive)"
compound=N#CC1(c2ccccc2)CCN(C2(c3ccccc3)CCCCC2)CC1 value_kind=GI50 result="> 100 µM (inactive)"
compound=COc1cc2cc3c4cc(OC)c(OC)cc4cc[n+]3c(C)c2cc1OC value_kind=GI50 result="> 100 µM (inactive)"

* * *

System: DMS-273
Assay: NCI tumour cell line growth inhibition, 48 h
Activity calls are given as the source filed them. Rule as the data show it: active = GI50 up to about 1.1 µM and inactive = higher.
GI50 listing for selected molecules.
VALUE_KIND: GI50

molecule=O=[N+]([O-])c1cc2ncc(-c3ccccc3)c(O)c2cc1/C(Cl)=C/c1ccccc1 value_kind=GI50 result="5.61 µM (inactive)"
molecule="NC(=O)/C(=N\\NC(=O)C[n+]1ccccc1)C1NC(=O)NC1=O (configuration not stated)" value_kind=GI50 result="> 100 µM (inactive)"
molecule="O=C(c1ccccc1)[C@H]1Nc2ccc(Cl)cc2C2c3ccccc3CC21 (some centres not stated)" value_kind=GI50 result="66.8 µM (inactive)"
molecule=CCN(CC)CCOc1ccc(/C=C(\C#N)c2ccc(OCCN(CC)CC)cc2)cc1 value_kind=GI50 result="13.6 µM (inactive)"
molecule=O=[PH](O)c1ccsc1 value_kind=GI50 result="> 100 µM (inactive)"
molecule=O=C(O)CCSC(=O)Nc1cccc([N+](=O)[O-])c1 value_kind=GI50 result="> 100 µM (inactive)"
molecule=O=C(CC/C(CC(=O)c1ccc(Br)cc1)=N\O)Nc1ccc(Cl)c(Cl)c1 value_kind=GI50 result="82.8 µM (inactive)"

* * *

Tested on: RPMI-8226
Assay: NCI tumour cell line growth inhibition, 48 h
Active and inactive are the calls of the source. Cut-off read from the data, not from the text of the source: active = GI50 up to about 1.1 µM and inactive = higher.
VALUE_KIND: GI50

compound="CC(=O)NC(CCCNCc1ccccc1)C(=O)NCc1ccccc1 (stereo unspecified)" result="> 100 µM (inactive)"
compound="CSc1nc(=O)c(C#N)c(-c2ccccc2)n1C1OC(COC(C)=O)C(OC(C)=O)C(OC(C)=O)C1OC(C)=O (stereo unspecified)" result="> 100 µM (inactive)"
compound=C1=Cc2nc1c(-c1ccncc1)c1ccc([n-]1)c(-c1ccncc1)c1nc(c(-c3ccncc3)c3ccc([n-]3)c2-c2ccncc2)C=C1.[Zn+2] result="> 100 µM (inactive)"
compound=O=S(=O)(O)c1cc(/N=N/c2cccc3ccccc23)c(O)c2ncccc12 result="41.2 µM (inactive)"
compound=CC(C)=C[C@H]1CCC2(OCCO2)[C@]1(C)COCc1ccccc1 result="18.2 µM (inactive)"
compound=CN(C)CCC(CCN(C)C)=NO result="> 100 µM (inactive)"
compound="[O-][S+]1c2ccccc2NC(c2ccc3ccccc3c2)CC1c1ccccc1 (stereo unspecified)" result="21.6 µM (inactive)"
compound=NC(=O)NN=C(CS)CS result="46.1 µM (inactive)"
compound=N#Cc1ncn(CCO)c1N result="> 100 µM (inactive)"
compound="COc1ccc(C2Oc3cc(OC)c(O)c(C)c3[C@H]2C)cc1 (stereo partly specified)" result="> 10 µM (inactive)"
compound="O=C(c1ccccc1)[C@H]1Nc2ccc(Cl)cc2C2c3ccccc3CC21 (stereo partly specified)" result="> 100 µM (inactive)"
